Ref: patent US9260418B2

target: acetylcholine muscarinic M1 receptor (Homo sapiens, UniProt P11229); construct: b382 calls them CHOK1/hM1; experiment: muscarinic FLIPR intracellular calcium assay, potentiation of EC20 acetylcholine in CHOnfat/hM1 cells; settings: inflection point calculated from FLIPR values, 4 min preincubation, then EC20 acetylcholine (3 nM final), read-out: IP Value
Sequence (P11229 whole entry): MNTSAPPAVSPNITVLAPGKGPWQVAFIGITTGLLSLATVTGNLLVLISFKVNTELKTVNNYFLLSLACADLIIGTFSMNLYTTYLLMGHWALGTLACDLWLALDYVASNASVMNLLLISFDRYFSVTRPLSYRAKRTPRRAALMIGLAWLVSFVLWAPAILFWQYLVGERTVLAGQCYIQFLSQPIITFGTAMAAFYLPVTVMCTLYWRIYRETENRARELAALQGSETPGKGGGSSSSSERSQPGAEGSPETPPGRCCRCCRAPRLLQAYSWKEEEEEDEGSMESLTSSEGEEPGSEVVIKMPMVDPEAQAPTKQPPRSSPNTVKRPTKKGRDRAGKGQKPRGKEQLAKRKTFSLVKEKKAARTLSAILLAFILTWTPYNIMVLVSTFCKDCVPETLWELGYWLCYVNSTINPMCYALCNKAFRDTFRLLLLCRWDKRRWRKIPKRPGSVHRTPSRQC
For each record, write down the corresponding EC50.
Value expressed in µM; do not type the unit.

Form field - read-out: EC50; system: acetylcholine muscarinic M1 receptor (Homo sapiens, UniProt P11229); submitted item: "O=c1c2cc(Cc3cc[n+]([O-])c(Cl)c3)c3ccccc3c2ncn1[C@H]1CCOC[C@@H]1O"
0.058

Form field - read-out: EC50; system: acetylcholine muscarinic M1 receptor (Homo sapiens, UniProt P11229); submitted item: "Cc1ccc(-c2ccc(Cc3cc4c(=O)n([C@H]5COCC[C@@H]5O)cnc4c4ccccc34)cn2)cn1"
0.0071

Form field - read-out: EC50; system: acetylcholine muscarinic M1 receptor (Homo sapiens, UniProt P11229); submitted item: "O=c1c2cc(Cc3ccc(OC(F)F)nc3)c3ccccc3c2ncn1[C@H]1CCOC[C@@H]1O"
0.039

Form field - read-out: EC50; system: acetylcholine muscarinic M1 receptor (Homo sapiens, UniProt P11229); submitted item: "CN(C)C(=O)c1ccc(Cc2cc3c(=O)n([C@H]4CCOC[C@@H]4O)cnc3c3ccccc23)cn1"
0.318

Form field - read-out: EC50; system: acetylcholine muscarinic M1 receptor (Homo sapiens, UniProt P11229); submitted item: "O=c1c2cc(Cc3ccc(N4CCOCC4)cc3)c3ccccc3c2ncn1[C@H]1CCOC[C@@H]1O"
0.021
